# Tested on: MS2 coat protein
# test: apparent KD of MS2 coat protein; designed switch direction (-1 OFF switch, 1 ON switch): -1; higher = weaker reporter binding
# condition-set: input ligand: FMN 200 uM
Use 20 nM as the dividing line for apparent KD of MS2 coat protein, with the line itself on the Fulfilled side and lower values as Not fulfilled.

# primary-sequence, label-value
data = [
    ("UCUUAUCUAUAGGAUAUAGGAGCAGAAUUGCGAUUAGAAGGAUGGACAUGAGGAUCACCCAUGUGCAUGGGCUU [EX6 B.6] (Eterna round: R97, puzzle: Exclusion 6)", "Not fulfilled"),
    ("GCCUCACAUGAGGAUCACCCAUGUGAGGAUAUUGAGUUACCAGGCGAACAAGCGACUACGAGAAGGCACGUGGA [Eternabot (L2) Solution 85] (Eterna round: R97, puzzle: Exclusion 1)", "Not fulfilled"),
    ("GAUCCUCAGACGGACGUCACGAAACAUGAGGAUCACCCAUGUGAGGAUAUCUCCAAAAGGUCGGCAGAGAAGGCACCAUAACAA [Eternabot solution 19] (Eterna round: R96, puzzle: Exclusion NG 3)", "Fulfilled"),
    ("UGAGCUUGUGUGAGGAUAUUUCGAGUGAAAGCUUGAGAGAAGGCACAUGAGGAUCACCCAUGUAAGCGAGUUCG [-26.1, -24 kcal, A 28%, 1bis-1] (Eterna round: R97, puzzle: Brourd's mod of Exclusion 4)", "Fulfilled"),
    ("AGUCAGGCGGUAGGAUAUCCAUAUCGAGUGACCCUUUCAUAACAUGAGGAUCACCCAUGUCGGUGGGAGAAGGGCCGUACGGCG [JL ViennaUCT Atra mod 4] (Eterna round: R96, puzzle: Exclusion NG 2)", "Fulfilled"),
    ("GUUUUCAGACGGAGAUCCUACAUGAGGAUCACCCAUGUCUCACAAGCUUUUUGCUCGUCUUAUUCUCCUCUGUUCUC [Elimod 41 - Jieux - Sensor, turn-off variant 1] (Eterna round: R97, puzzle: Sensor, turn-off variant 1)", "Fulfilled"),
    ("ACGGCUGAAGGAUAUGCAGUGACCACAAAGGUAUGACUAUCACAUGAGGAUCACCCAUGUAGAAGGUCGGCGCC [Eternabot (L2) Solution 29] (Eterna round: R97, puzzle: Exclusion 2)", "Not fulfilled"),
    ("ACUCGACAUGAGGAUCACCCAUGUGAGGAUAUGGCCUGUUUGGCGUGAGCUGGCUCUGUCAGAAGGCGCGUGGG [salish99_ex1_r4_045] (Eterna round: R97, puzzle: Exclusion 1)", "Fulfilled"),
    ("GAGUGAGCGUGAGGAAUAUACAUGAGGAUCACCCAUGUUUGCUAAUAUAUUGCUCGUCUUAUAACAACAAUUAACUG [Mod-hoo-honey#ab] (Eterna round: R97, puzzle: Sensor, turn-off variant 1)", "Not fulfilled"),
]

* * *

// reported apparent KD of MS2 coat protein for each item listed
# System: MS2 coat protein
# test: apparent KD of MS2 coat protein; designed switch direction (-1 OFF switch, 1 ON switch): -1; higher = weaker reporter binding
# condition-set: input ligand: none
test-readout: apparent KD of MS2 coat protein (nM)

# primary-sequence, test-readout, unit-symbol, reported-result
rows = [
    ("GUUGUUUAUGUAGGAUAUGCCUGGCGAGCCUAAGCAGAAGGACAUGAGGAUCACCCAUGUAUUGCGGUCUGCGUUCAGAUCGCU [salish99_ExNG1_r4_018] (Eterna round: R96, puzzle: Exclusion NG 1)", "apparent KD of MS2 coat protein", "nM", 18.9),
    ("AGAACUCUAGUAGGAUAUGUCGGAUAUGUUGUUGAGGUUCACCCAACGACGUCAAUGACAGAAGGACAGAAGGACUCCUGUUCA [pwkr exNG2 2xFMN 1xF5.8] (Eterna round: R96, puzzle: Exclusion NG 2)", "apparent KD of MS2 coat protein", "nM", 711),
    ("UAAUAACAAGCGAGAUCCUACAUGAGGAUCACCCAUGUGCUCGUCUUAUAAGGUACUGUGACGAUAGUCACGGUACC [Mat - Sensor, turn-off var - Eli Mod - D96] (Eterna round: R97, puzzle: Sensor, turn-off variant 1)", "apparent KD of MS2 coat protein", "nM", 18.2),
    ("CUGUUUUUCGCAGGAUAUGCUUCUCCUUUAUUAGCAGAAGGGCGUUAAACAUGAGGAUCACCCAUGUAUGGUAAUGAUAUUUUC [JR_ExcNG1_Sub060] (Eterna round: R96, puzzle: Exclusion NG 1)", "apparent KD of MS2 coat protein", "nM", 55.8),
    ("AAGUGACAUGAGGAUCACCCAUGUCAGGAUAUGCGCCGCUUACGCCUAAGUGUAGGGAGCAGAAGGGACAUAGA [EX1 B.2] (Eterna round: R97, puzzle: Exclusion 1)", "apparent KD of MS2 coat protein", "nM", 25.7),
    ("GAGUACUGAGGAUAUACAUGAGGAUCACCCAUGUGUUCCAGCUAGGAAACUAGCAAAAGUAGAAGGCAGUACUG [salish99_ex3_r3_084] (Eterna round: R96, puzzle: Exclusion 3)", "apparent KD of MS2 coat protein", "nM", 23.2),
    ("UCCUUACUGGUCAGGAUAUACAGUCGCGGGUGGGUGUAGAAGGGACAUGAGGAUCACCCAUGUACGUUACAUCC [alecazam54h] (Eterna round: R97, puzzle: Brourd's mod of Exclusion 4)", "apparent KD of MS2 coat protein", "nM", 19.9),
    ("UCAAGAAUAGGAUAUACAACAUGCCCGCUUCUUUGCAUCGCACAUGAGGAUCACCCAUGUAGAAGGGUUCUCUA [Exclusion-2-#16] (Eterna round: R97, puzzle: Exclusion 2)", "apparent KD of MS2 coat protein", "nM", 151),
    ("AAAACGUGAGGAUAUCCAAUAUAUGACAUGAGGAUCACCCAUGUUUCCACUCGUACCUCCGGAGAAGGCACAAUUA [Ex5 #77] (Eterna round: R97, puzzle: Exclusion 5)", "apparent KD of MS2 coat protein", "nM", 43),
]

* * *

# Test system: MS2 coat protein
# test: apparent KD of MS2 coat protein; designed switch direction (-1 OFF switch, 1 ON switch): -1; higher = weaker reporter binding
# condition-set: input ligand: none
test-readout: apparent KD of MS2 coat protein

# primary-sequence, reported-result
data = [
    ("UUCAUGUGAGGAUAUUAGUAGUAAAUGAAUAAAAUUAUUACUGAGAAGGUACAUGAGGAUCACCCAUGUUCCUU [Mat - Exclusion 4 - Eli Mod - D21] (Eterna round: R97, puzzle: Exclusion 4)", "14.6 nM"),
    ("CUGAACCCGGUAGGAUAUAUUGUGGGCAAGCGUGGAACGACAUGAGGAUCACCCAUGUAAUUUAGGUAGAAGGGCCGAGAGAUU [Excl-NG2-LRO12] (Eterna round: R96, puzzle: Exclusion NG 2)", "41.5 nM"),
    ("UCCACAUGAGGAUCACCCAUGUAAGGUGAGUAAAAGAAGAGGCAGGAUAUUGAAGCGACCUCGCCCAAGAAGGGCCUCACCAAA [Eternabot solution 11] (Eterna round: R96, puzzle: Exclusion NG 3)", "60.6 nM"),
    ("AUGGAAGAGCAAUAGCUCUACAUGAGGAUCACCCAUGUAGGAAAUACUGGGUACAGCGGGCUUUUUGCUCGGCUUAU [Alacar Attempt 4] (Eterna round: R97, puzzle: Sensor, turn-off variant 1)", "412 nM"),
    ("UCAUGUUUAGAGGAUAUGAUUACUUUUGAGUAAUCAGAAGGCUAGACAUGAGGAUCACCCAUGUCAUAACAUGA [Exclusion 6 - B - 15:d] (Eterna round: R96, puzzle: Exclusion 6)", "242 nM"),
]

* * *

apparent KD of MS2 coat protein listing for selected sequences.
# Test system: MS2 coat protein
# test: apparent KD of MS2 coat protein; designed switch direction (-1 OFF switch, 1 ON switch): 1; higher = weaker reporter binding
# condition-set: input ligand: microRNA oligo, concentration not stated
test-readout: apparent KD of MS2 coat protein (nM)

# primary-sequence, test-readout, reported-result
rows = [
    ("GGUAUUGACACAGGAUAUGCUUACGAAACGUAAGCAGAAGGGUGAACAUGAGGAUCACCCAUGUAUGUACCAGGGCGUGAGCCC [JL SSNG1 1.74] (Eterna round: R96, puzzle: Same State NG 1)", "apparent KD of MS2 coat protein", 875),
    ("CUGAGCAAUCUAGGAUAUCACGUCGUUUAGACGUGAGAAGGAGAUCAUAACAUGAGGAUCACCCAUGUAUUACAUGAAGCUCAG [SSNG1/7-A3] (Eterna round: R96, puzzle: Same State NG 1)", "apparent KD of MS2 coat protein", 15.7),
    ("CAGCACUAUCGAGAGGAUAUGCGGUGAUGGACAUGAGGAUCACCCAUGUUAGCGGUAGCAUCACGGCAGAAGGCUCUGCUGCUGC [Soteed Omei mod 39] (Eterna round: R96, puzzle: Same State 2)", "apparent KD of MS2 coat protein", 21.5),
    ("GCGGAGAGGUAAGGAUAUCCAUGGCAUAGACAUGAGGAUCACCCAUGUAGGAGACGAAUUAGAAGGGAGAAGGUACCGGGACGC [AK SSNG2-V2-19] (Eterna round: R96, puzzle: Same State NG 2)", "apparent KD of MS2 coat protein", 111),
    ("GAGUAGUUAAAAGGAUAUUGAUUAUUGUAGGAUCAAGAAGGUUUUAACAUGAGGAUCACCCAUGUAGGACUAUUCCUGUGUAUC [Parity 90 - Jieux - Same State NG 1] (Eterna round: R96, puzzle: Same State NG 1)", "apparent KD of MS2 coat protein", 12),
    ("UCGGGCGUACUUGCUGACAUGAGGAUCACCCAUGUCCUUGGACAGGAUAUGGUUCCGUUUCGGUUCCAGAAGGUCCUGGCUGCU [salish99_SSNG3_r04_320] (Eterna round: R96, puzzle: Same State NG 3)", "apparent KD of MS2 coat protein", 25.5),
    ("UAUUUAAUCAUAGGAUAUAGUGUGAAAUUUGGACUAGAAGGAUGUAACAUGAGGAUCACCCAUGUGGUAAGUGGGACACAGUGA [JR_SSNG1_Sub096] (Eterna round: R96, puzzle: Same State NG 1)", "apparent KD of MS2 coat protein", 114),
    ("UGUUGUAUUACAGGAUAUCUAUUGUUUUUUUUUAGAGAAGGGUAUUCACAUGAGGAUCACCCAUGUAUAUACGAGGAAGUUGUG [JMF's solution 79] (Eterna round: R96, puzzle: Same State NG 1)", "apparent KD of MS2 coat protein", 43.2),
    ("AUUUUUAAUGCAGGAUAUGAUUAACAUGAGGAUCACCCAUGUGGUGUUGUGAGUAAGGAGAGUGAUCAGAAGGGCAUUUUUUCA [SS-NG2-LRO01] (Eterna round: R96, puzzle: Same State NG 2)", "apparent KD of MS2 coat protein", 495),
]
